target_of_assay: UniProt Q92847
Sequence (Q92847 whole entry): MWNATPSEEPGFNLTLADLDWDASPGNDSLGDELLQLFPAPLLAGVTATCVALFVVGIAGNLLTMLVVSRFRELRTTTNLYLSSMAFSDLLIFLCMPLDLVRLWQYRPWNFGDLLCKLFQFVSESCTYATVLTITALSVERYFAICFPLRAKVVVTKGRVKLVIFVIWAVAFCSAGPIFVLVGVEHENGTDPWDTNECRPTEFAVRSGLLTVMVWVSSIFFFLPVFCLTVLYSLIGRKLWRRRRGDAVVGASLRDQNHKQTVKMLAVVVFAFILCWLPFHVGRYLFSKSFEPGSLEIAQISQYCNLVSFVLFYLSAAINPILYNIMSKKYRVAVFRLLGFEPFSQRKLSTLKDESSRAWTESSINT
test_method_notes: Calcium release, antagonist
Format: cell-based
run_conditions: 15 minutes preincubation, then ghrelin
readout_name: IC50 (nM)
Give the quantity in nM, number only.

## Input Please give measured IC50 of the following entry: COc1ccc(Cn2c([C@@H](Cc3c[nH]c4ccccc34)NC(C)=O)nnc2[C@@H](Cc2c[nH]c3ccccc23)NC(=O)c2ccccn2)cc1.O=C(O)C(F)(F)F [Cpd 3]
## Output 2.5

## Input Please list IC50 recorded for the molecule COc1ccc(Cn2c([C@@H](Cc3ccccc3)NC=O)nnc2[C@@H](Cc2c[nH]c3ccccc23)NC(=O)c2ccccn2)cc1.O=C(O)C(F)(F)F [Cpd 5]
## Output 3.1

## Input Answer with the recorded IC50 for the molecule listed here: COc1ccc(Cn2c(CCc3c[nH]c4ccccc34)nnc2[C@@H](Cc2ccc3ccccc3c2)NC(=O)OC(C)(C)C)cc1.O=C(O)C(F)(F)F [Cpd 15]
## Output 39.9

----------
target_of_assay: MDR-1 (P-glycoprotein, Pgp) (Homo sapiens (Human), UniProt P08183)
Sequence (P08183 whole entry): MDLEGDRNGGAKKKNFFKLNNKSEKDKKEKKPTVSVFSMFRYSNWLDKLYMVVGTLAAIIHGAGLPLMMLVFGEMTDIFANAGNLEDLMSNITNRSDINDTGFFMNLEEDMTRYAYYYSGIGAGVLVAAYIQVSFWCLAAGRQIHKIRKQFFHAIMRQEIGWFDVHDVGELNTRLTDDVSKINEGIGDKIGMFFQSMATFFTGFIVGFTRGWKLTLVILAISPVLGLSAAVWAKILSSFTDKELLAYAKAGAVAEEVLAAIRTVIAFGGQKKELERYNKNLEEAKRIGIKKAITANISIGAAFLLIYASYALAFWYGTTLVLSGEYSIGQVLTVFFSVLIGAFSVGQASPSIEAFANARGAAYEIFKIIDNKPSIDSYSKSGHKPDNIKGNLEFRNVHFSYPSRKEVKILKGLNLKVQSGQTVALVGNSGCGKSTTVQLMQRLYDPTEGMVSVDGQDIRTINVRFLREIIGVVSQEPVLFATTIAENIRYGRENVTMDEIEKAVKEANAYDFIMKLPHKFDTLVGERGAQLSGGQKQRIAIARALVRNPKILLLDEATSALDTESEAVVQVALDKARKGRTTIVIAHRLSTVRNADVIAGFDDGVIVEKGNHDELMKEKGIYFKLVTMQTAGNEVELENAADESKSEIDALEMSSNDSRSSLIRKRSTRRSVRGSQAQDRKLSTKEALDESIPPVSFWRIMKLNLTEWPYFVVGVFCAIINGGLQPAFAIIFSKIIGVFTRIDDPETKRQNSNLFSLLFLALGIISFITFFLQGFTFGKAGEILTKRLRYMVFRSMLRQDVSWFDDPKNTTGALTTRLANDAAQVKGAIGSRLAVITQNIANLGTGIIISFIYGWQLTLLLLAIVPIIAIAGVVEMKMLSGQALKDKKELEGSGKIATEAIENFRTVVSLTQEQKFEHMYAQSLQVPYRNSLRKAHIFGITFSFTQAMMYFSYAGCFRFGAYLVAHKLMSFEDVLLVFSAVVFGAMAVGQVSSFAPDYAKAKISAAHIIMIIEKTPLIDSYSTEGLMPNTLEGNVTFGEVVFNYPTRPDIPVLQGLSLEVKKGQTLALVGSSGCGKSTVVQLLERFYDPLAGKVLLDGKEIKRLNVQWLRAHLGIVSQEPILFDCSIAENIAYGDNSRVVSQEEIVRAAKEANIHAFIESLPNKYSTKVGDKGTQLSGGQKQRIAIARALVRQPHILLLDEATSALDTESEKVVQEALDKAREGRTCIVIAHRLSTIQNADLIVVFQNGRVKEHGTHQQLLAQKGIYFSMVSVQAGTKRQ
test_method_notes: Inhibition of MDR1 ATPase (Pgp-Glo assay, SF9 membrane preparations)
Assay type: biochemical
readout_name: Inhibition of MDR1 ATPase EC50

{"columns": ["compound_structure", "target_of_assay", "test_value"],
 "data": [
  ["COc1ccc(Cn2c([C@@H](Cc3ccccc3)NC(C)=O)nnc2[C@@H](Cc2c[nH]c3ccccc23)NC(=O)c2ccccn2)cc1.O=C(O)C(F)(F)F", "MDR-1 (P-glycoprotein, Pgp) (Homo sapiens (Human), UniProt P08183)", "no full dose"],
  ["COc1ccc(Cn2c(CCc3ccccc3)nnc2[C@@H](Cc2c[nH]c3ccccc23)NC(=O)OCC(C)C)cc1.O=C(O)C(F)(F)F", "MDR-1 (P-glycoprotein, Pgp) (Homo sapiens (Human), UniProt P08183)", "no full dose"],
  ["COc1ccc(Cn2c([C@@H](Cc3ccccc3)NC=O)nnc2[C@@H](Cc2c[nH]c3ccccc23)NC(=O)c2ccccn2)cc1.O=C(O)C(F)(F)F", "MDR-1 (P-glycoprotein, Pgp) (Homo sapiens (Human), UniProt P08183)", "no inhibition"],
  ["COc1ccc(Cn2c([C@@H](Cc3ccccc3)NC(C)=O)nnc2[C@@H](Cc2c[nH]c3ccccc23)NC(=O)CO)cc1.O=C(O)C(F)(F)F", "MDR-1 (P-glycoprotein, Pgp) (Homo sapiens (Human), UniProt P08183)", "no inhibition"]
]}

----------
Kindly supply the reported Stability in Liver Microsomes Rat % Remaining after 1 h Incubation values for the records listed here.
test_method_notes: Stability in liver microsomes
Type: in vitro ADME, rat
run_conditions: @37° C./1 mg/ml Liver Microsomes, 10 μM
Lab book: enter the figure in %, no units written.

## Input Name the recorded Stability in Liver Microsomes Rat % Remaining after 1 h Incubation of the compound listed here: COc1ccc(Cn2c([C@@H](Cc3ccccc3)NC(C)=O)nnc2[C@@H](Cc2c[nH]c3ccccc23)NC(=O)CO)cc1.O=C(O)C(F)(F)F
## Output 27.1

## Input Identify measured Stability in Liver Microsomes Rat % Remaining after 1 h Incubation associated with COc1ccc(Cn2c([C@@H](Cc3ccccc3)NC(C)=O)nnc2[C@@H](Cc2c[nH]c3ccccc23)NC(=O)c2ccccn2)cc1.O=C(O)C(F)(F)F
## Output 46.7

## Input Identify the reported Stability in Liver Microsomes Rat % Remaining after 1 h Incubation for the following entry. COc1ccc(Cn2c(CCc3ccccc3)nnc2[C@@H](Cc2c[nH]c3ccccc23)NC(=O)OCC(C)C)cc1.O=C(O)C(F)(F)F
## Output 24.8
